Assay: probe aNog binding to arrayed compounds – biochemical, biotinylated probe, 635/667 nm fluorescence, primary screen (AID 1115);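 also: probe is biotinylated aNog protein used at 0.15 µg/mL for 1 h at 4 C; z-score combines 667 nm fluorescence of each spot with its signal to noise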
Conditions: small-molecule microarray, higher = more signal
property_label: composite z-score
The response must contain the number and no unit.

Could you tell me which composite z-score is on file for OCCCC1=CC(c2ccc(CN3CCCC3)cc2)N(Cc2cc3c(cc2Br)OCO3)CC1 (configuration not stated) ? 0.162

###

Molecular target: Concanavalin-A (Canavalia ensiformis)
Experiment: compounds binding concanavalin A lectin – biochemical, small-molecule microarray, Alexa647 label, 635 nm, artefact control for SMM control protein annotation, primary screen (AID 1127);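 also: z combines 667 nm emission intensity with signal-to-noise across three replicate slides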
Settings: ConA-A647 binding fluorescence, higher = more signal
Items are presented alongside their recorded composite z-score.
Note: the reply should be a number with no unit written.

{"molecule": "[N-]=[N+]=Nc1ccccc1C[C@]1(C(=O)O)COC(c2ccc(OCCCO)cc2)=N1", "measured_number": -0.19}
{"molecule": "COc1cc(OC)c(C(O)C2C=CC3C(=O)N(Cc4ccccc4)C(=O)C3N2n2cnnc2)cc1Br (stereo not given)", "measured_number": 0.756}
{"molecule": "CC(C)[Si](C#C[Si](C(C)C)(C(C)C)C(C)C)(O[C@H](c1ccccc1)c1cn(Cc2ccccc2)nn1)C(C)C", "measured_number": 0.135}
{"molecule": "CCOC(=O)C[C@H]1[C@H](OC(=O)c2cc3ccccc3oc2=O)[C@@H](NC(=O)c2ccc3ccccc3n2)c2cc(OCCCO)ccc2N1C(=O)Cc1ccc(OC)cc1", "measured_number": 1.05}
{"molecule": "COCCOC(=O)N1C(=O)[C@@]2(c3cc(C#CCC(C(=O)OC)C(=O)OC)ccc31)[C@H](c1ccc(OCCO)cc1)N1[C@H](c3ccccc3)[C@H](c3ccccc3)OC(=O)[C@H]1[C@@H]2C(=O)N1CCc2cc(OC)c(OC)cc2C1", "measured_number": 1.11}

Bench note: what composite z-score did CC(C)N1C(=O)c2ccccc2[C@@H](C(=O)NCCN2CCOCC2)[C@@H]1c1ccc(CO)cc1 show? -0.538

Given the molecule COc1cccc(C)c1NC(=O)O[C@H]1[C@H](OC(=O)Nc2ccccc2-c2ccccc2)[C@H](OC(=O)Nc2ccccc2-c2ccccc2)[C@@H](OC)O[C@@H]1CO , what is its reported composite z-score? 1.15

Request the reported composite z-score associated with CCOC(=O)C[C@H]1[C@H](OC(=O)c2ccc(C(=O)c3ccccc3)cc2)[C@@H](NC(=O)CC(C)C)c2cc(OCCCO)ccc2N1C(=O)c1ccccc1 1.05

Request the reported composite z-score associated with CC(CO)N1C(=O)[C@@H]2[C@H]3C(=O)OCC=C[C@H]3OC23C=CCN(Cn2nnc4ccccc42)C(=O)[C@@H]13 (stereo not given in full) -0.967
